Each recorded value in this set is attributed to ChEMBL document CHEMBL1137544.

I'd appreciate it if you could supply IC50 values for the items below.
tested on: J774.A1; experiment: Inhibition of LPS-induced TNFalpha production in mouse J774A.1 cells; assay type: functional, cell-based
Expressed in nM, but write only the number.

Request: I have this molecule here, `C[C@@H]1C[C@H]2[C@@H]3CCC4=CC(=O)C=C[C@]4(C)[C@@]3(F)[C@@H](O)C[C@]2(C)[C@@]1(O)C(=O)CO` , and I need its recorded IC50.
Response: 48

Request: Moving on to `CC[C@@H](C(C)C)[C@H](O)[C@@H](O)[C@@H](C)[C@H]1CC[C@H]2[C@@H]3CC=C4C[C@@H](O)CC[C@]4(C)[C@H]3CC[C@]12C`
Response: 35

Request: Moving on to `C[C@]12CC[C@H]3[C@@H](CC(=O)[C@@]4(O)C[C@@H](O)CC[C@]34C)[C@@H]1CCC2=O`
Response: 109

----------
system: J774.A1; assay: Inhibition of LPS-induced TNFalpha production in mouse J774A.1 cells; assay type: functional, cell-based
measurement_type: IC50
Remember to follow the number with its unit.

Request: Find IC50 (J774.A1) for the entry `CC[C@@H](C(C)C)[C@H](O)[C@@H](O)[C@@H](C)[C@H]1CC[C@H]2[C@@H]3CC(=O)[C@@]4(O)C[C@@H](F)CC[C@]4(C)[C@H]3CC[C@]12C`
Response: 0.047 µM

Request: Moving on to `CC[C@@H](C(C)C)[C@H](O)[C@@H](O)[C@@H](C)[C@H]1CC[C@H]2[C@@H]3CC=C4C[C@@H](Br)CC[C@]4(C)[C@H]3CC[C@]12C`
Response: 0.144 µM

Request: Moving on to `C[C@]12CC[C@H]3[C@@H](CC(=O)[C@@]4(O)C[C@@H](Br)CC[C@]34C)[C@@H]1CCC2=O`
Response: 0.134 µM

Request: Moving on to `CC[C@@H](C(C)C)[C@H](O)[C@@H](O)[C@@H](C)[C@H]1CC[C@H]2[C@@H]3CC(=O)[C@@]4(O)C[C@@H](O)CC[C@]4(C)[C@H]3CC[C@]12C`
Response: 0.018 µM

Request: Moving on to `CC[C@@H](C(C)C)[C@H](O)[C@@H](O)[C@@H](C)[C@H]1CC[C@H]2[C@@H]3CC(=O)[C@@]4(O)C[C@@H](Br)CC[C@]4(C)[C@H]3CC[C@]12C`
Response: 0.038 µM

Request: Moving on to `C[C@]12CC[C@H](O)CC1=CC[C@@H]1[C@@H]2CC[C@]2(C)C(=O)CC[C@@H]12`
Response: 0.141 µM
